Record: AC50 reported on Cytochrome P450 2D6 (Homo sapiens, UniProt P10635).
Sequence (P10635 whole entry): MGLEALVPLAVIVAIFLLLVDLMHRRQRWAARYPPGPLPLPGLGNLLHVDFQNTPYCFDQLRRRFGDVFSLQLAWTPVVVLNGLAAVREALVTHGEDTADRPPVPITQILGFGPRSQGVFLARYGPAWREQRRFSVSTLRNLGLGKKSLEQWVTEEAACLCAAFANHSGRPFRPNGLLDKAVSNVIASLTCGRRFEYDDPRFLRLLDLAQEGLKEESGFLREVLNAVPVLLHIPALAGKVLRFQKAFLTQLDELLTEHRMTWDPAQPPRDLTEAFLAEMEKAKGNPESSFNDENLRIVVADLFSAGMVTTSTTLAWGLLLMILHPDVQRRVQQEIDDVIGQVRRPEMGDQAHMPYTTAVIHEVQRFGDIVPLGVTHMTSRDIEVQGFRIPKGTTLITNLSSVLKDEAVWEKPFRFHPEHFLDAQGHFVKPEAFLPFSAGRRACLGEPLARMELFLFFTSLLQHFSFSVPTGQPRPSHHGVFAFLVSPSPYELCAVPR

Some compounds with recorded AC50:
1) c1ccc(-c2ccc(N3CC4(CCNCC4)C3)cc2)cc1	25.1 µM (inconclusive)
2) COc1ccccc1CNc1ncncc1-c1cccc(NS(C)(=O)=O)c1	12.6 µM (inconclusive)

Now for another entry.
Problem: Recall and state the measured AC50 for COc1ccc(/C(O)=C(\C#N)c2nc3ccccc3n2C)cc1OC .
Solution: 1.58 µM (inconclusive)

* * *

Test system: Streptococcus sp. 'group A'
Test: growth inhibition of control SK(-) GAS strain, dose response, counter-screen for streptokinase expression inhibitor project, luminescence, kanamycin, BacTiterGlo, confirmation (AID 1900)
Type: functional, organism-based
Active and inactive are the calls of the source.
measure: EC50

Some molecules with recorded EC50:
1. COc1cc([N+](=O)[O-])cc(/C=N/NC(=O)c2cncc(Br)c2)c1O	1.85 µM (active)
2. COc1ccc(/C=N/NC(=O)Cc2csc(Nc3cccc(C(F)(F)F)c3)n2)cc1C	9.89 µM (active)
3. O=C(CSc1ccccn1)N/N=C/c1cc([N+](=O)[O-])ccc1O	1.01 µM (active)

Problem: Recall and state the measured EC50 for CCc1ccc(OCC(=O)NC(N=C(S)Nc2ccc(C)cc2C)C(Cl)(Cl)Cl)cc1 (centres undefined) .
Solution: 3.3 µM (active)

* * *

Test system: Streptococcus
Assay: Group A Streptococcus viability loss, dose response, counter-screen for streptokinase expression inhibitor project, luminescence, BacTiterGlo (AID 1915);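 note: potency for reduction of bacterial viability or growth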
Assay type: functional, organism-based
The source made the active and inactive calls.
measure: EC50

Problem: Recall and state the measured EC50 for CCCCCCCc1nn2c(O)cc(=O)nc2s1 .
Solution: > 150 µM (not active)

Problem: Recall and state the measured EC50 for O=C(Nc1cc(S(=O)(=O)Nc2ccc(Cl)cc2)ccc1N1CCCCC1)c1ccc(F)cc1 .
Solution: > 150 µM (not active)

Problem: Recall and state the measured EC50 for O=C(CSc1nnc(NC(=O)c2cccc(Cl)c2)s1)NCC1CCCO1 (stereo not given) .
Solution: > 150 µM (not active)

Problem: Recall and state the measured EC50 for COc1cccc(/C=N/NC(=O)c2nnn(-c3nonc3N)c2C(C)C)c1OCc1ccc(F)cc1 .
Solution: 43.1 µM (active)

Problem: Recall and state the measured EC50 for CCc1ccc(OCC(=O)NC(N=C(S)Nc2ccc(C)cc2C)C(Cl)(Cl)Cl)cc1 (stereo not given) .
Solution: 8.13 µM (active)

* * *

Biological target: Heat shock factor protein 1 (Mus musculus)
Sequence (P38532 whole entry): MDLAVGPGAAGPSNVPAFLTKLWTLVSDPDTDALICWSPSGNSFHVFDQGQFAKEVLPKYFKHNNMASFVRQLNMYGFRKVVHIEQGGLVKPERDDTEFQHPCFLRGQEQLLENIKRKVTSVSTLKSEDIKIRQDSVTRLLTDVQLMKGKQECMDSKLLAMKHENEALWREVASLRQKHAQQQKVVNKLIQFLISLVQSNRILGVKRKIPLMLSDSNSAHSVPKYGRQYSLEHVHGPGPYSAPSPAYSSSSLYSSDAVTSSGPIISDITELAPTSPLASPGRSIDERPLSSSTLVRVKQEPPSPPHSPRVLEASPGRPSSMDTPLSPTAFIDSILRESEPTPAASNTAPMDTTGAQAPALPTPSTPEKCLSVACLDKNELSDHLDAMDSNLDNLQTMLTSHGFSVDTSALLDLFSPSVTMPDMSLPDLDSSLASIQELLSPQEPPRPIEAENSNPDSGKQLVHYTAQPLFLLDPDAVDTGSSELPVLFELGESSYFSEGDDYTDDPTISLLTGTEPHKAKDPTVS
Assay: inhibition of MG132-induced HSE-luciferase signal, confirmation, cell-based, NIH3T3, luminescence, dose retest (AID 2382);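 note: NIH3T3 fibroblasts with HSF1-driven luciferase reporter stressed by proteasome inhibitor MG132; luminescence from HSF1-driven luciferase expression after 8 hours of MG132 stress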
Type: functional
Calls of active or inactive are those of the source.
// reported EC50 per item

Some compounds with recorded EC50:
1. CCN1CCN(Cc2ccc(NC(=O)c3cc(NC(=O)c4cncc(-c5ccc(C#N)cc5)c4)cc(OC)c3)cc2C(F)(F)F)CC1	> 195 µM (not active)
2. O=C(O)c1cc2cc(F)ccc2[nH]1	> 195 µM (not active)
3. c1c2c(cc3sc(N4CCCCC4)nc13)OCCO2	11.5 µM (active)
4. COc1ccc(N(C)C(=O)c2oc(=O)c3ccccc3c2-c2ccccc2)c(OC)c1	> 195 µM (not active)
5. O=[N+]([O-])c1cnc(Sc2ccncn2)s1	4.12 µM (active)
6. Cc1ccc2nc(N(CCCN(C)C)C(=O)c3ccc(S(=O)(=O)N4CCCCCC4)cc3)sc2c1	109 µM (active)

Now for another entry.
Problem: Recall and state the measured EC50 for C=CCn1c(C)cc(C(=O)CSc2nnc(NC(C)C)s2)c1C .
Solution: > 195 µM (not active)
